# Tested Target: HIV-1 pseudovirus X1193_c1 (HIV-1)
# Experimental Protocol: cell-based or functional assay
Property Measured: IC80 (neutralization in TZM.bl cells) (mg/L)

>>> numeric_value("MS-87 (antibody, V domains shown) VH: QVQLVQSGPEVRKPGTSVKVSCKAPGNTLKTYDLHWVRSVPGQGLQWMGWISHEGDKKVIVERFKAKVTITRDRSTNTAYLQLSGLTSGDTAVYYCAKGSKHRLRDYALYDDDGALNWAVDVDYLSNLEFWGQGTAVTVSS VL: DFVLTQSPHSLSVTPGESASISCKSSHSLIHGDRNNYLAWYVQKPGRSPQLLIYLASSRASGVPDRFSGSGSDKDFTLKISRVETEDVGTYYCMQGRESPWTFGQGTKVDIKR")
0.277
>>> numeric_value("MS-70 (antibody, V domains shown) VH: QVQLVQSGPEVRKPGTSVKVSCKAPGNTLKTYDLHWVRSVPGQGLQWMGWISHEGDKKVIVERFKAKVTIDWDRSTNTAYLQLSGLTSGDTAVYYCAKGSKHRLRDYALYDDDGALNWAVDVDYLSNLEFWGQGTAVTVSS VL: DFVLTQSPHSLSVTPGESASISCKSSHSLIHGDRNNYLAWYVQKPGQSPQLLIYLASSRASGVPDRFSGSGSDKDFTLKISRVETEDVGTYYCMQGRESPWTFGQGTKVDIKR")
0.413
>>> numeric_value("MS-82 (antibody, V domains shown) VH: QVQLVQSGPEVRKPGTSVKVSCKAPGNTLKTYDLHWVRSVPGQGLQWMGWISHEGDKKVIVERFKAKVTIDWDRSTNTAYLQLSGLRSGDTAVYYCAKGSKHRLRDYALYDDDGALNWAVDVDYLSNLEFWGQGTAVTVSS VL: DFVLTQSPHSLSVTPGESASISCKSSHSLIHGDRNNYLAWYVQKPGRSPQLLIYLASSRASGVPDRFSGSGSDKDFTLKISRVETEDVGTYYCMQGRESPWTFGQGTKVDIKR")
0.411
